biological target: T1, Human CD137 ECD (human); experiment: Biacore SPR, vs parent H183/L072
T1 construct: entry includes C-terminal His-tag and biotin acceptor peptide; also called human CD137 extracellular domain; 4-1BB
T1 sequence (chain, as listed by the source limits assumed): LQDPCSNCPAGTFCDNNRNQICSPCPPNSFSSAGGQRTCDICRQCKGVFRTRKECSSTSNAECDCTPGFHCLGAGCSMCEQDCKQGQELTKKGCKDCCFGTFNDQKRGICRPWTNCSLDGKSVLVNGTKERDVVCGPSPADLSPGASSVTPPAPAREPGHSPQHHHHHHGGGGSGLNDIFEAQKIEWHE
Labelling: fold change of affinity reported below 1 fold becomes met; at or above becomes not met.

Check out these entries, answers already filled in.
H183/L072 VL S26K (antibody, name in Kabat numbering, V domains shown, Dual-Ig) VH: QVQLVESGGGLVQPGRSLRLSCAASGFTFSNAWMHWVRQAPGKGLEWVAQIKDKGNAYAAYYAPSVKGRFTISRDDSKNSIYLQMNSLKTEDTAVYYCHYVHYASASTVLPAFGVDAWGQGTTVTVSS VL: DIVMTQSPLSLPVTPGEPASISCQAKQELVHMNRNTYLHWYQQKPGQAPRLLIYKVSNRFPGVPDRFSGSGSGTDFTLKISRVEAEDVGVYYCAQGTSVPFTFGQGTKLEIK = met
H183/L072 VL S26H (antibody, name in Kabat numbering, V domains shown, Dual-Ig) VH: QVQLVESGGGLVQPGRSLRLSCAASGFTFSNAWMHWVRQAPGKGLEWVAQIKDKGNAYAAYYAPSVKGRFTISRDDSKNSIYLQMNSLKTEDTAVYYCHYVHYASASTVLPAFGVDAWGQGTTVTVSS VL: DIVMTQSPLSLPVTPGEPASISCQAHQELVHMNRNTYLHWYQQKPGQAPRLLIYKVSNRFPGVPDRFSGSGSGTDFTLKISRVEAEDVGVYYCAQGTSVPFTFGQGTKLEIK = met

hey, is fold change of affinity for H183/L072 VL A89V (antibody, name in Kabat numbering, V domains shown, Dual-Ig) VH: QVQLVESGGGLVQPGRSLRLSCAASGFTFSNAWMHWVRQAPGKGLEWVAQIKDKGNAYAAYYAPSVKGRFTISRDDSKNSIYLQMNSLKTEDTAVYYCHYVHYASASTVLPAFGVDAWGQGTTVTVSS VL: DIVMTQSPLSLPVTPGEPASISCQASQELVHMNRNTYLHWYQQKPGQAPRLLIYKVSNRFPGVPDRFSGSGSGTDFTLKISRVEAEDVGVYYCVQGTSVPFTFGQGTKLEIK lower than 1 fold or not?
met

hey, is fold change of affinity for H183/L072 VL L27bV (antibody, name in Kabat numbering, V domains shown, Dual-Ig) VH: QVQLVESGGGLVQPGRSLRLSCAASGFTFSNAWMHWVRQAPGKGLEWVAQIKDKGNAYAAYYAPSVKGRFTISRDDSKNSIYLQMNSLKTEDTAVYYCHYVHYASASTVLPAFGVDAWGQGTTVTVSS VL: DIVMTQSPLSLPVTPGEPASISCQASQEVVHMNRNTYLHWYQQKPGQAPRLLIYKVSNRFPGVPDRFSGSGSGTDFTLKISRVEAEDVGVYYCAQGTSVPFTFGQGTKLEIK lower than 1 fold or not?
not met

Cited source: patent US20210388087A1
